FYI, the data here is from patent US12540913B2.

target: cocaine aptamer; details: read-out: dissociation constant Kd; Comparative Example 1: 1 mM methyl benzoate titrated into 50 μM cocaine aptamer in D-PBS(−), no tropane derivative; binding order 1
ENDPOINT: Kd
Param answer (str): number followed by unit.

Please report Kd with cocaine aptamer for item COC(=O)c1ccccc1 [methyl benzoate] .
87.7 µM

----------
biological target: cocaine aptamer; conditions: read-out: dissociation constant Kd; Example 1: 1 mM methyl benzoate titrated into 50 μM cocaine aptamer in D-PBS(−) containing 10 μM tropine
ENDPOINT: Kd (µM)
Entry rule: numbers only, all in µM.

Give the value of Kd reported for the following: COC(=O)c1ccccc1 [methyl benzoate]
69.7
